# targetDesc: 0N4R Tau fibrils (Homo sapiens)
# Sequence (P10636 1-383 isoform P10636-6): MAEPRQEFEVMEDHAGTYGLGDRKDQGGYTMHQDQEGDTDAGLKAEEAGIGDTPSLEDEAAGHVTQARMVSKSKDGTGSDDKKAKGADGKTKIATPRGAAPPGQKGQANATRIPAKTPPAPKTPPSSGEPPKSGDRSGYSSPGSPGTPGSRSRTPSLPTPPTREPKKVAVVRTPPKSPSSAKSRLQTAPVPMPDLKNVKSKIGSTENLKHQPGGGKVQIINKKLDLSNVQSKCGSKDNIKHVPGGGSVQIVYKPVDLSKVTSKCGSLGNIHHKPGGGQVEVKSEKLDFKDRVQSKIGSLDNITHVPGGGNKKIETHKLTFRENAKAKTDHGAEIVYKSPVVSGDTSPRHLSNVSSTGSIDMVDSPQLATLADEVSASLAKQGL
# measurementDescription: ^3H-THK5117 competition binding to tau fibrils in vitro
# conditions: 3 nM [^3H]-THK5117, recombinant 0N4R tau fibrils; average if run more than once
pIC50: −log10 of the molar value.
measurementLabel: pIC50

Reference set, count: 3
# smilesStr, targetDesc, pIC50
records = [
    ("COc1ccc2[nH]c(-c3ccc(N4CCC(C(N)=O)CC4)nc3F)cc2c1", "0N4R Tau fibrils (Homo sapiens)", 8.15),
    ("OC1CCN(c2ncc(-c3cc4ccccc4o3)cn2)CC1", "0N4R Tau fibrils (Homo sapiens)", 7.37),
    ("Cc1ccc(S(=O)(=O)OCCC2CCN(c3ccc(-c4nc5ccccc5s4)cn3)CC2)cc1", "0N4R Tau fibrils (Homo sapiens)", 8.10),
]

(1) COc1ccc2[nH]c(-c3ccc(N4CCC(C(N)=O)CC4)nc3)cc2c1
(2) NC(=O)COC1CCN(c2ccc(-c3nc4ccccc4s3)cn2)CC1
(3) COc1ccc2nc(-c3ccc(N4CCC(CCF)CC4)nc3)sc2c1
(4) OCCC1CCN(c2ccc(-c3cc4ccccc4o3)nn2)CC1
INPUT: Put these in order: smallest pIC50 first, largest last. Would you mind listing the labels in the order requested?
OUTPUT: 4, 2, 1, 3

(a) CNC(=O)c1ccc2cc(-c3ccc(N4CCC(CO)CC4)nc3F)[nH]c2c1
(b) N#CC1CCN(c2ccc(-c3nc4ccccc4o3)cn2)CC1
INPUT: Of a and b , whose reported pIC50 is the larger number? Bench note: the answer is the label of the chosen record.
OUTPUT: a
(a: 7.62, b: 7.14)

Attribution: patent US12636385B2
